These measurements were taken from patent US20190134153A1.

tested target: Axl(h) (Homo sapiens)
experiment description: Kinase Profiling Assay
Format: biochemical
condition details: 100 μM
Property: % activity; scope: individual sequences
Please give a number only; it is taken to be in %.

sequence_data="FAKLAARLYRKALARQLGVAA [MMI-0300]" measure_name="% activity" measurement_unit=% test_result=52

stdin: Returns the measured % activity for the input sequence. Input: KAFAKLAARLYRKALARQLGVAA [MMI-0400]
stdout: 41

stdin: Returns the measured % activity for the input sequence. Input: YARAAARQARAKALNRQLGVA [MMI-0200]
stdout: 99

stdin: Returns the measured % activity for the input sequence. Input: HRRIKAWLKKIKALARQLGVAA [MMI-0500]
stdout: 12

====

tested target: LOK(h) (Homo sapiens)
Sequence (O94804 whole entry): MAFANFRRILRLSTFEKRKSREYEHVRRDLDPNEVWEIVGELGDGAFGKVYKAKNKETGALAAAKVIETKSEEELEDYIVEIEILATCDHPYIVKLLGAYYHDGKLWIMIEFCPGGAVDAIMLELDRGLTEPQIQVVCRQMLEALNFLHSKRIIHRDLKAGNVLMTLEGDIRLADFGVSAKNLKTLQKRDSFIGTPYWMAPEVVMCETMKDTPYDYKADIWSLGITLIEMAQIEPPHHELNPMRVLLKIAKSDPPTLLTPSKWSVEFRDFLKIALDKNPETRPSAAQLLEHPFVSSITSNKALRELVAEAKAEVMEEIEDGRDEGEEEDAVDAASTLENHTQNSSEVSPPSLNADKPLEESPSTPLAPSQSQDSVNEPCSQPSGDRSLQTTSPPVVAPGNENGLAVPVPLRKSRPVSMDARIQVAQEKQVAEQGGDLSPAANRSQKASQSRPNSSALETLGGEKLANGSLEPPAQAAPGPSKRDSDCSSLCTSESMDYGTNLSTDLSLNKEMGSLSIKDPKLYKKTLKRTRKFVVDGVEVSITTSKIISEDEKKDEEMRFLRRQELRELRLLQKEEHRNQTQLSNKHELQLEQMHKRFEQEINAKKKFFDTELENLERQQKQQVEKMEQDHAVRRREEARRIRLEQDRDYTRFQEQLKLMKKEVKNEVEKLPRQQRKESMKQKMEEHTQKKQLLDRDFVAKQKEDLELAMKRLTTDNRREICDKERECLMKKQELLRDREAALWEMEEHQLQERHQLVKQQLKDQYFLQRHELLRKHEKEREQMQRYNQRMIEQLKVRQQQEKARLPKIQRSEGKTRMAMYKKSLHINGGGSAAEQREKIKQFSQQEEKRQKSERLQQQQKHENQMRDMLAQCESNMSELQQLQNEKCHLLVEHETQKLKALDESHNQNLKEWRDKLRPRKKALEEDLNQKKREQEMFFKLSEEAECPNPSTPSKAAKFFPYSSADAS
experiment description: Kinase Profiling Assay
Format: biochemical
condition details: 100 μM
Property: % activity; scope: individual sequences
Please give a number only; it is taken to be in %.

sequence_data="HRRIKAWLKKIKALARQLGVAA [MMI-0500]" measurement_unit=% test_result=7
sequence_data="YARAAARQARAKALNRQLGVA [MMI-0200]" measurement_unit=% test_result=67
sequence_data="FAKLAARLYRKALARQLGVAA [MMI-0300]" measurement_unit=% test_result=37

Now look at this one.
stdin: Returns the measured % activity for the input sequence. Input: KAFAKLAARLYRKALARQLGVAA [MMI-0400]
stdout: 18

====

tested target: Tie2(Y897S)(h) (Homo sapiens, UniProt Q02763, Y897S)
Sequence (Q02763 23-1124 Y897S): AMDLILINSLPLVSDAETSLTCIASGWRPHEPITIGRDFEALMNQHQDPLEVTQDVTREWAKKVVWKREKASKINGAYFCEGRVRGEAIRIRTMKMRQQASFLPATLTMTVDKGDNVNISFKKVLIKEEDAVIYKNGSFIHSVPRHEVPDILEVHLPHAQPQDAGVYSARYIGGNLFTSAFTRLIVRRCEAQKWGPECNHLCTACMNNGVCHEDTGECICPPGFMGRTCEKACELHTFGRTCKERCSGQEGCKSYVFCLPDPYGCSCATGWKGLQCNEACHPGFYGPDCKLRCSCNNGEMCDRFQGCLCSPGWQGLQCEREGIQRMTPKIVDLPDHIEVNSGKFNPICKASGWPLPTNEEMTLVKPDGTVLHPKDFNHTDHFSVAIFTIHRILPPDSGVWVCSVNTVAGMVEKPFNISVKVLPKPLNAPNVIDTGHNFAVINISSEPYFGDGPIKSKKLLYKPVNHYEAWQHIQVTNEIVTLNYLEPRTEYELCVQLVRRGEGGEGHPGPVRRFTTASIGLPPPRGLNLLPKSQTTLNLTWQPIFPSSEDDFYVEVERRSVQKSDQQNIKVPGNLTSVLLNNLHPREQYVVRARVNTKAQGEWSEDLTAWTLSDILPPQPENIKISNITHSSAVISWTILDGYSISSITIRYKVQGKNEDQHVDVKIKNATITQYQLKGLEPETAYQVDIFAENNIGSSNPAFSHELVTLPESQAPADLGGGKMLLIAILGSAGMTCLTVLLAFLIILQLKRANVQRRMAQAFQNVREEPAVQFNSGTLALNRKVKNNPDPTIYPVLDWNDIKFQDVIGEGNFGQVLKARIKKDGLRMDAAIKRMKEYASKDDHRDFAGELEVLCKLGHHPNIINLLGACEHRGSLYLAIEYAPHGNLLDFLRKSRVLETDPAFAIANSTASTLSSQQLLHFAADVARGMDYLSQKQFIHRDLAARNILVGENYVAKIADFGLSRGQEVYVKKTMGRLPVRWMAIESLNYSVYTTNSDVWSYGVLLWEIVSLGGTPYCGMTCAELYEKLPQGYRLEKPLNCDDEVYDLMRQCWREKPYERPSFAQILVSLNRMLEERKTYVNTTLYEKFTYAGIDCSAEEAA
experiment description: Kinase Profiling Assay
Type: biochemical
condition details: 100 μM
measure name: % activity (%)
Please give a number only; it is taken to be in %.

sequence_data="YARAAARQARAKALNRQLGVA [MMI-0200]" test_result=85

stdin: Returns the measured % activity for the input sequence. Input: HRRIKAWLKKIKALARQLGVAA [MMI-0500]
stdout: 80

stdin: Returns the measured % activity for the input sequence. Input: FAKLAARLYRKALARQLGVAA [MMI-0300]
stdout: 83

stdin: Returns the measured % activity for the input sequence. Input: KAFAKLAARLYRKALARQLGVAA [MMI-0400]
stdout: 87

====

Property: % activity; scope: individual sequences
tested target: SGK3(h) (Homo sapiens, UniProt Q96BR1)
Sequence (Q96BR1 1-496): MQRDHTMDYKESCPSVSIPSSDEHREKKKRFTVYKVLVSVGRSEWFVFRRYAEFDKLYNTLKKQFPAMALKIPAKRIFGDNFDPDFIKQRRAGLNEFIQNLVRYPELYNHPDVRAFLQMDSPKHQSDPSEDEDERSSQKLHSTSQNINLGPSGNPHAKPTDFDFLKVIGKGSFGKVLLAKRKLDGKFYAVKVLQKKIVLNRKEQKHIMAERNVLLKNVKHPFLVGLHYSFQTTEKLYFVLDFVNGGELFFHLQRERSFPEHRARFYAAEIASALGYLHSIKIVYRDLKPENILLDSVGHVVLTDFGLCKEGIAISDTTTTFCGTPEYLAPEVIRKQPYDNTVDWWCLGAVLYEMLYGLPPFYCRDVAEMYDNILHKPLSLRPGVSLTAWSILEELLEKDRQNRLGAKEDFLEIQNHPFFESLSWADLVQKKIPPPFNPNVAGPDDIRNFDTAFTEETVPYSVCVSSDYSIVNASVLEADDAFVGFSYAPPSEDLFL
experiment description: Kinase Profiling Assay
Assay type: biochemical
condition details: 100 μM
Please give a number only; it is taken to be in %.

# annotated cases, reported % activity shown
sequence_data="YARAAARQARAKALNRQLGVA [MMI-0200]" test_result=58
sequence_data="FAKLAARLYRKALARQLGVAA [MMI-0300]" test_result=10
sequence_data="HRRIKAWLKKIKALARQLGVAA [MMI-0500]" test_result=−3

Now look at this one.
stdin: Returns the measured % activity for the input sequence. Input: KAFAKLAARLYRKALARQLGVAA [MMI-0400]
stdout: 8
